- Target or test system: T1, human MSLN-hFc protein (Acro, Cat. No. MSN-H5253) (human, UniProt Q13421 296-580)
- T1 construct: bought protein; also called human MSLN full-length protein; not shown: human Fc (hFc) of the bought protein
- T1 sequence (Q13421 other isoform, or with tags, fused parts or gaps limits assumed): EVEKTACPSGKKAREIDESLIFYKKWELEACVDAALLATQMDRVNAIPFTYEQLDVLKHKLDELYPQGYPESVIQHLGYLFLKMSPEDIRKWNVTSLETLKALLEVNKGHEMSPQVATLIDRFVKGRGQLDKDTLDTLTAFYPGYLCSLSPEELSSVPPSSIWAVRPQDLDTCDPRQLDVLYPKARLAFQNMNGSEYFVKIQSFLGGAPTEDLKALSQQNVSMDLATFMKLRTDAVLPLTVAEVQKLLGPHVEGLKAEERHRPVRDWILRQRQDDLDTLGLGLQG
- Assay notes: ELISA, coated human MSLN-hFc, antibody 100 nM
Listed here: items and their measured OD450 nm.
Number only, please.

{"columns": ["Binder", "Endpoint label", "Reported"],
 "data": [
  ["F2.39.3-H9 (scFv, not shown: small tags and cut ends, also called S009-F2.39.3 humanized VH3 + VL1) scFv: EVQLVQSGAEVKKPGASVKVSCKASGYTFTNYWMHWVRQAPGQGLEWMGNINPSSGDSYYNERFMSRVTMTVDKSTSTAYMELSSLRSEDTAVYYCARSGGLWLAFWGPGTLVTVSSGGGGSGGGGSGGGGSDIVMTQSPDSLAVSLGERATINCKSSQTLLNSVSQNNYLAWYQQKPGQSPKLLIYFASTRESGVPDRFSGSGSGTDFTLTISSLQAEDVAVYYCQQHYRTPYTFGGGTKVEIK", "OD450 nm", 1.81],
  ["F2.39.3-H6 (scFv, not shown: small tags and cut ends, also called S009-F2.39.3 humanized VH2 + VL2) scFv: EVQLVQSGAEVKKPGASVKVSCKASGYTFTNYWMHWVRQAPGQGLEWMGNINPSSGDSYYNERFMSRVTMTVDKSTSTAYMELSSLRSEDTAVYYCARSGGLWLAFWGQGTLVTVSSGGGGSGGGGSGGGGSDIVMTQSPDSLAVSLGERATINCKSSQTLLNSVSQNNYLAWYQQKPGQSPTLLIYFASTRESGVPDRFSGSGSGTDFTLTISSLQAEDVAVYYCQQHYRTPYTFGGGTKVEIK", "OD450 nm", 1.69]
]}

# input for lookup
I would be grateful if you could share the reported OD450 nm for F2.39.3-H2 (scFv, not shown: small tags and cut ends, also called S009-F2.39.3 humanized VH1 + VL2) scFv: EVQLVQSGAEVKKPGASVKVSCKASGYTFTNYWMHWVRQAPGQGLEWMGNINPSSGDSYYNERFMSRVTMTVDKSTSTVYMELSSLRSEDTAVYYCARSGGLWLAFWGQGTLVTVSSGGGGSGGGGSGGGGSDIVMTQSPDSLAVSLGERATINCKSSQTLLNSVSQNNYLAWYQQKPGQSPTLLIYFASTRESGVPDRFSGSGSGTDFTLTISSLQAEDVAVYYCQQHYRTPYTFGGGTKVEIK .
1.82

This collection of values is drawn from patent US20250250357A1.
